Molecular target: acetylcholinesterase enzyme from electric eel (Electrophorus electricus)
Construct: purchased Sigma-Aldrich CAS Number 9000-81-1 (catalogue number not given)
Assay: Acetylcholinesterase (AChE) inhibitory assay (DTNB/acetylthiocholine iodide, absorbance at 412 nm)
Assay type: biochemical
Conditions: Conc 25 ug/ml
quantity name: inhibition at 25 µg/mL (%)

O=C(c1ccc(C(F)(F)F)cc1)C1C(c2cc3ccccc3s2)C2C3CCCCC3CN2[C@@]12C(=O)Nc1ccc(Cl)cc12 (stereo partly shown) [IIk]
49.2
O=C(c1ccc(Br)cc1)C1C(c2cc3ccccc3s2)C2CSCN2[C@@]12C(=O)Nc1ccc(Cl)cc12 (stereo partly shown) [IIl]
56.5
O=C(c1ccccc1)C1C(c2cc3ccccc3s2)C2CSCN2[C@@]12C(=O)Nc1ccccc12 (stereo partly shown) [IIb]
40.9
O=C(c1ccc(C(F)(F)F)cc1)C1C(c2cc3ccccc3s2)C2CSCN2[C@@]12C(=O)Nc1ccc(Cl)cc12 (stereo partly shown) [IIi]
38.7

###

Target: acetylcholinesterase enzyme from electric eel (Electrophorus electricus, UniProt O42275)
Construct: purchased Sigma-Aldrich CAS Number 9000-81-1 (catalogue number not given)
Sequence (O42275 24-633): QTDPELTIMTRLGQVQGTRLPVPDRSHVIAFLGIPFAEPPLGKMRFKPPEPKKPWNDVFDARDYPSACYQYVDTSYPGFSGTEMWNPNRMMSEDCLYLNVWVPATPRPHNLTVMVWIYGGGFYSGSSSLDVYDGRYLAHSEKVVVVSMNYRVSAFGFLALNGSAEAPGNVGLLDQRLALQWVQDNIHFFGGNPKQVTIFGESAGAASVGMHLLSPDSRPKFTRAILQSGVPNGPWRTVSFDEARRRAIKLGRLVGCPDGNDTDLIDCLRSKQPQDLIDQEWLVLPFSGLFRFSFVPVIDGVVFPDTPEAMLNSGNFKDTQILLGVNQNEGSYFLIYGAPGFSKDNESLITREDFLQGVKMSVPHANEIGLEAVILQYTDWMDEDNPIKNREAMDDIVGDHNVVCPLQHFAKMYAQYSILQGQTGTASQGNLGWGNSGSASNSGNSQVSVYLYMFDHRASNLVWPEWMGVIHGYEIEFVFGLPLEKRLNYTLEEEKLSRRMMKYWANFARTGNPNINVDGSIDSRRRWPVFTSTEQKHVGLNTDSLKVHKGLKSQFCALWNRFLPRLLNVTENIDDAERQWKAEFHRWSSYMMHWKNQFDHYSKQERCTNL
Assay: Acetylcholinesterase (AChE) inhibitory assay (DTNB/acetylthiocholine iodide, absorbance at 412 nm)
Assay type: biochemical
Details: Conc 12.5 ug/ml
quantity name: inhibition at 12.5 µg/mL

O=C(c1ccc(F)cc1)C1C(c2cc3ccccc3s2)C2CSCN2[C@@]12C(=O)Nc1ccc(Cl)cc12 (stereo partly drawn) [IIg]
51.8%
O=C(c1ccc(Cl)cc1)C1C(c2cc3ccccc3s2)C2CSCN2[C@@]12C(=O)Nc1ccc(Cl)cc12 (stereo partly drawn) [IId]
41.5%
O=C(c1ccc(Br)cc1)C1C(c2cc3ccccc3s2)C2C3CCCCC3CN2[C@@]12C(=O)Nc1ccc(Cl)cc12 (stereo partly drawn) [IIn]
41.8%
O=C(c1ccc(C(F)(F)F)cc1)C1C(c2cc3ccccc3s2)C2CSCN2[C@@]12C(=O)Nc1ccc(Cl)cc12 (stereo partly drawn) [IIi]
26.2%
O=C(c1ccccc1)C1C(c2cc3ccccc3s2)C2CSCN2[C@@]12C(=O)Nc1ccccc12 (stereo partly drawn) [IIb]
25.6%
O=C(c1ccc(F)cc1)C1C(c2cc3ccccc3s2)C2C3CCCCC3CN2[C@@]12C(=O)Nc1ccc(Cl)cc12 (stereo partly drawn) [IIh]
23.3%

###

Target: acetylcholinesterase enzyme from electric eel (Electrophorus electricus, UniProt O42275)
Construct: purchased Sigma-Aldrich CAS Number 9000-81-1 (catalogue number not given)
Assay: Acetylcholinesterase (AChE) inhibitory assay (DTNB/acetylthiocholine iodide, absorbance at 412 nm)
Assay type: biochemical
Details: Conc 6.25 ug/ml
quantity name: inhibition at 6.25 µg/mL (%)

O=C(c1ccccc1)C1C(c2cc3ccccc3s2)C2C3CCCCC3CN2[C@@]12C(=O)Nc1ccc(Cl)cc12 (stereo partly shown) [IIc]
43.5
O=C(c1ccc(Br)cc1)C1C(c2cc3ccccc3s2)C2CSCN2[C@@]12C(=O)Nc1ccc(Cl)cc12 (stereo partly shown) [IIl]
34.9
O=C(c1ccc(F)cc1)C1C(c2cc3ccccc3s2)C2CSCN2[C@@]12C(=O)Nc1ccc(Cl)cc12 (stereo partly shown) [IIg]
41.5
O=C(c1ccc(Cl)cc1)C1C(c2cc3ccccc3s2)C2C3CCCCC3CN2[C@@]12C(=O)Nc1ccc(Cl)cc12 (stereo partly shown) [IIf]
34.9
